Cited source: paper PMC3759295

Measured fold induction at 24 h, 50 µM, listed per entry.
# System: CYP1A1 mRNA
# test: CYP1A1 mRNA expression in primary human hepatocytes
# Format: cell-based
# run.conditions: male, human, primary human hepatocytes (culture LH46)

Before answering, review these 2 worked examples.
>>> meas_value("COc1cc(-c2[o+]c3cc(O)cc(O)c3cc2O[C@@H]2O[C@H](CO)[C@@H](O)[C@H](O)[C@H]2O)cc(OC)c1O [MAL-1, malvidin-3-O-glucoside chloride]")
1.56
>>> meas_value("OC[C@H]1O[C@@H](Oc2cc3c(O[C@@H]4O[C@H](CO)[C@@H](O)[C@H](O)[C@H]4O)cc(O)cc3[o+]c2-c2ccc(O)c(O)c2)[C@H](O)[C@@H](O)[C@@H]1O [CYA-3, cyanidin-3,5-di-O-glucoside chloride]")
2.59

Now, please, on to the next compound.
Give fold induction at 24 h, 50 µM for OC[C@H]1O[C@@H](Oc2cc3c(O)cc(O)cc3[o+]c2-c2ccc(O)c(O)c2)[C@H](O)[C@@H](O)[C@@H]1O [CYA-1, cyanidin-3-O-glucoside chloride] 1.04

###

Measured CYP1A1 mRNA fold induction over the vehicle-treated cells, LH48, listed per entry.
# Test system: CYP1A1 mRNA in primary human hepatocytes
# test: CYP1A1 mRNA expression in primary human hepatocytes
# Type: cell-based
# run.conditions: 50 µM
Return type: number; implicit unit fold.

>>> meas_value("OC[C@H]1O[C@@H](Oc2cc3c(O[C@@H]4O[C@H](CO)[C@@H](O)[C@H](O)[C@H]4O)cc(O)cc3[o+]c2-c2ccc(O)cc2)[C@H](O)[C@@H](O)[C@@H]1O [PEL-1, pelargonidin-3,5-di-O-glucoside chloride]")
0.98
>>> meas_value("Oc1cc(O)c2cc(O[C@@H]3OC[C@H](O)[C@H](O)[C@H]3O)c(-c3ccc(O)c(O)c3)[o+]c2c1.[Cl-] [CYA-5, cyanidin-3-O-arabinoside chloride]")
0.07

Now, please, on to the next compound.
Look up and report measured CYP1A1 mRNA fold induction over the vehicle-treated cells, LH48 (CYP1A1 mRNA in primary human hepatocytes) for the following compound: OC[C@H]1O[C@@H](Oc2cc3c(O)cc(O)cc3[o+]c2-c2ccc(O)c(O)c2)[C@H](O)[C@@H](O)[C@H]1O.[Cl-] [CYA-7, cyanidin-3-O-galactoside chloride] 0.05

###

# Tested on: CYP1A1 mRNA in primary human hepatocytes
# test: CYP1A1 mRNA expression in primary human hepatocytes
# Format: cell-based
# run.conditions: hepatocyte culture LH47, 50 µM, 24 h
observable: CYP1A1 mRNA fold induction over the vehicle-treated cells, LH47 (fold)
Return type: number; implicit unit fold.

>>> meas_value("C[C@@H]1O[C@@H](OC[C@H]2O[C@@H](Oc3cc4c(O)cc(O)cc4[o+]c3-c3cc(O)c(O)c(O)c3)[C@H](O)[C@@H](O)[C@@H]2O)[C@H](O)[C@H](O)[C@H]1O.[Cl-] [DEL-2, delphinidin-3-O-rutinoside chloride]")
0.23

Look up and report measured CYP1A1 mRNA fold induction over the vehicle-treated cells, LH47 (CYP1A1 mRNA in primary human hepatocytes) for the following molecule: COc1cc(-c2[o+]c3cc(O)cc(O[C@@H]4O[C@H](CO)[C@@H](O)[C@H](O)[C@H]4O)c3cc2O[C@@H]2O[C@H](CO)[C@@H](O)[C@H](O)[C@H]2O)cc(OC)c1O.[Cl-] [MAL-2, malvidin-3,5-di-O-glucoside chloride] 0.56

Look up and report measured CYP1A1 mRNA fold induction over the vehicle-treated cells, LH47 (CYP1A1 mRNA in primary human hepatocytes) for the following molecule: OC[C@H]1O[C@@H](Oc2cc3c(O)cc(O)cc3[o+]c2-c2cc(O)c(O)c(O)c2)[C@H](O[C@@H]2OC[C@@H](O)[C@H](O)[C@H]2O)[C@@H](O)[C@@H]1O.[Cl-] [DEL-4, delphinidin-3-O-sambubioside chloride] 0.21

Look up and report measured CYP1A1 mRNA fold induction over the vehicle-treated cells, LH47 (CYP1A1 mRNA in primary human hepatocytes) for the following molecule: OC[C@H]1O[C@@H](Oc2cc3c(O)cc(O)cc3[o+]c2-c2cc(O)c(O)c(O)c2)[C@H](O)[C@@H](O)[C@@H]1O.[Cl-] [DEL-1, delphinidin-3-O-glucoside chloride] 1.01

Look up and report measured CYP1A1 mRNA fold induction over the vehicle-treated cells, LH47 (CYP1A1 mRNA in primary human hepatocytes) for the following molecule: COc1cc(-c2[o+]c3cc(O)cc(O)c3cc2O[C@@H]2O[C@H](CO)[C@@H](O)[C@H](O)[C@H]2O)ccc1O.[Cl-] [PEO-1, peonidin-3-O-glucoside chloride] 0.51

Look up and report measured CYP1A1 mRNA fold induction over the vehicle-treated cells, LH47 (CYP1A1 mRNA in primary human hepatocytes) for the following molecule: CC1OC(OCC2OC(Oc3cc4c(O)cc(O)cc4[o+]c3-c3ccc(O)cc3)C(O)C(O)C2O)C(O)C(O)C1O.[Cl-] (stereo not drawn) [PEL-2, pelargonidin-3-O-rutinoside chloride] 0.61
